- test system: UniProt Q9C098
- Sequence (Q9C098 whole entry, looked up): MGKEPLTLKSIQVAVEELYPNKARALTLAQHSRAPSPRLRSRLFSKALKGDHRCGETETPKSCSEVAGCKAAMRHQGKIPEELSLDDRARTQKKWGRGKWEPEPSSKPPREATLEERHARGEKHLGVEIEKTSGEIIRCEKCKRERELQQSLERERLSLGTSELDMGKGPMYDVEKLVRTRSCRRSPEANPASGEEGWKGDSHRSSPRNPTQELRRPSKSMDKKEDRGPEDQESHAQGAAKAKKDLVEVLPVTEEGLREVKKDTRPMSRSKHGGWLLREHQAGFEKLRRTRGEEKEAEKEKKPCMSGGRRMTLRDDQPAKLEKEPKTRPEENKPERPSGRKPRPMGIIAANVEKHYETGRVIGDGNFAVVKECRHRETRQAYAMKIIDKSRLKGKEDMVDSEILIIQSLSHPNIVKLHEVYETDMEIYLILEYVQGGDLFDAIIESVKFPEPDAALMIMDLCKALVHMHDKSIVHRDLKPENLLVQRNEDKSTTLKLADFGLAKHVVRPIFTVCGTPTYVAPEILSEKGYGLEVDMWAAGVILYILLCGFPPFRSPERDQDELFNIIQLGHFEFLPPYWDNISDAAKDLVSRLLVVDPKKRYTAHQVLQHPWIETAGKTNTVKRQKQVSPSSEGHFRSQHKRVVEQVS
- assay text: KINOMEscan competition binding
- measurement conditions: compound 1.0 µM
attribute measured: kinase still bound, per cent of control
Number first, unit second.

# compound structure, test system, kinase still bound, per cent of control
measured = [
    ("CN(C)C/C=C/C(=O)Nc1cccc(C(=O)Nc2ccc(Nc3nccc(/C(C#N)=C4\\Nc5ccccc5S4)n3)cc2)c1", "UniProt Q9C098", "100%"),
    ("CN(C)C/C=C/C(=O)Nc1cccc(C(=O)Nc2ccc(Nc3nccc(-c4cccnc4)n3)cc2)c1", "UniProt Q9C098", "100%"),
    ("Cc1cc(NC(=O)c2cccc(NC(=O)/C=C/CN(C)C)c2)ccc1Nc1nccc(-c2cccnc2)n1", "UniProt Q9C098", "100%"),
]

[ask] API: value(readout=kinase still bound, per cent of control, system=UniProt Q9C098) for record CN(C)C/C=C/C(=O)Nc1cccc(C(=O)Nc2ccc(Nc3nccc(-c4c(-c5ccccc5)nn5ccccc45)n3)cc2)c1
[reply] 86%
